Origin of the recorded values: patent US8389544B2

Tested on: MT1/293
measurement notes: MTT cytotoxicity assay, MT1/293 cells
Type: cell-based
conditions: percentage of untreated control cells

compound: COc1cc(COc2cc3c(=O)n(C)ccc3cc2OC)cc(OC)c1
MTT Assay MT1/293 % Viability ± SEM (%): 51.6
//
compound: COc1cccc(COc2cc3c(=O)n(C)ccc3cc2OC)c1
MTT Assay MT1/293 % Viability ± SEM (%): 89.8
//
compound: COc1cccc(COc2cc3ccn(C)c(=O)c3cc2OC)c1
MTT Assay MT1/293 % Viability ± SEM (%): 112.6
//
compound: COc1ccc2[nH]c(I)c(CCNC(C)=O)c2c1 [Compound 2-IMT, 2-iodomelatonin, reference compound]
MTT Assay MT1/293 % Viability ± SEM (%): 113.3
//
compound: COc1cc2ccn(C)c(=O)c2cc1OCc1ccc(C(C)(C)C)cc1
MTT Assay MT1/293 % Viability ± SEM (%): 25.0
